Where these numbers come from: PubChem BioAssay AID488958

- system.name: 3C-like protease (Infectious bronchitis virus, as filed; assay for SARS-CoV 3CLpro)
- assay.notes: SARS 3CLpro protease inhibition IC50 – biochemical, fluorescence, dose response, late-stage follow-up (AID 488958)
- test.conditions: recombinant 3CLpro, fluorogenic peptide cleavage
Activity calls are given as the source filed them. The rule behind the calls is not given here.
assay.endpoint: IC50

> print(dat)
                                   compound  assay.endpoint  experimental.value
1  CCC(C)c1ccc(N(C(=O)c2ccco2)[C@H](C(=O)NC(C)(C)C)c2cccnc2)cc1 (stereo partly specified)            IC50              2.3 µM
2  CC(=O)Nc1ccc(N(C(=O)Cn2nnc3ccccc32)C(C(=O)NCc2ccccc2)c2cccc(F)c2)cc1 (stereo unspecified)            IC50              2.9 µM
3  CC(=O)Nc1ccc(N(C(=O)Cn2nnc3ccccc32)C(C(=O)NC(C)(C)C)c2cccc(F)c2)cc1 (stereo unspecified)            IC50              6.3 µM
4  CC(C)(C)NC(=O)C(c1cccnc1)N(C(=O)c1ncco1)c1ccc(C(C)(C)C)cc1 (stereo unspecified)            IC50            inactive
5  CC(C)(C)NC(=O)C(c1cccnc1)N(C(=O)c1ccc(Cl)o1)c1ccc(C(C)(C)C)cc1 (stereo unspecified)            IC50              5.2 µM
6  CC(C)(C)NC(=O)C(c1cncnc1)N(C(=O)c1cnc[nH]1)c1ccc(C(C)(C)C)cc1 (stereo unspecified)            IC50            inactive
